assay comment: in vivo
run conditions: mouse, plasma, po, 10 mg/kg
property: concentration at 8 h (nM)
Give just the number in nM; leave the unit off.

Lookup result for CCN(Cc1cc(C(F)(F)F)ccc1-c1cc(CC(=O)O)ccc1OC)C(=O)NCc1ccccc1 ; measured concentration at 8 h: 30

---

assay comment: clinical
run conditions: human, plasma, oral, 30 mg
property: AUC(0-t) (ng·h/mL)
Give just the number in ng·h/mL; leave the unit off.

Lookup result for CCN(Cc1cc(C(F)(F)F)ccc1-c1cc(CC(=O)O)ccc1OC)C(=O)NCc1ccccc1 ; measured AUC(0-t): 32.3

---

assay comment: clinical
run conditions: human, plasma, po, 30 mg
property: AUC(0-t) (ng·h/mL)
Give just the number in ng·h/mL; leave the unit off.

Lookup result for CCN(Cc1cc(C(F)(F)F)ccc1-c1cc(CC(=O)O)ccc1OC)C(=O)NCc1ccccc1 ; measured AUC(0-t): 24.1
